testTarget: SlPMTR1
Construct: 6xHis-MBP-SlPMTR1-GFP fusion, pMAL-c2, E. coli Rosetta (DE3), Ni-NTA purified; seven-transmembrane protein; native length 300 residues (fragments 1-134 and 135-300); tags kept
experimentDescription: microscale thermophoresis (GFP fusion)
Assay type: binding, Solanum lycopersicum
conditionParameters: 22 °C, 30 min incubation; His-MBP-GFP fusion protein at 1 mg/ml
measuredQuantity: pKd
When answering, recall that pKd equals minus log10 of the concentration in mol/L, and write that number alone.

Lookup: State its pKd: COc1ccc2[nH]cc(CCNC(C)=O)c2c1 [melatonin]
Found: 7.30

----------
testTarget: SlPMTR2 (Solanum lycopersicum, UniProt A0A3Q7GXJ6)
Construct: 6xHis-MBP-SlPMTR2-GFP fusion, pMAL-c2, E. coli Rosetta (DE3), Ni-NTA purified; seven-transmembrane protein; native length 309 residues (fragments 1-140 and 141-309); tags kept
Sequence (A0A3Q7GXJ6 1-309): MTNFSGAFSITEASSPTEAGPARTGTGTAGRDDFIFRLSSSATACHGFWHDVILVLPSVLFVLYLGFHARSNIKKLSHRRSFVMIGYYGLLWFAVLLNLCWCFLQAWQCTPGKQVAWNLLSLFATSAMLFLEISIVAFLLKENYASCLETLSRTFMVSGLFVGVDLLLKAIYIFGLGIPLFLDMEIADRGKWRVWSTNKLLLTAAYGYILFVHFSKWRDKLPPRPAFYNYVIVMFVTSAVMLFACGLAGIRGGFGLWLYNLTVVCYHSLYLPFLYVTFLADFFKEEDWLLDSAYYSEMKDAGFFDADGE
experimentDescription: microscale thermophoresis (GFP fusion)
measuredQuantity: pKd
When answering, recall that pKd equals minus log10 of the concentration in mol/L, and write that number alone.

Lookup: State its pKd: `COc1ccc2[nH]cc(CCNC(C)=O)c2c1`
Found: 6.38
